Data provenance is paper PMC10975828.

- target_of_assay: UniProt:P0DTD1
- protocol_notes: SARS-CoV-2 Mpro inhibition assay (fluorescence, 96-well)
- Assay type: biochemical
- test_parameters: read-out: Inhibition at 5 μM (%)
Kindly state percent inhibition at 5 µM for each of the entries shown.
Answers are plain numbers, in %.

// solved cases for percent inhibition at 5 µM follow
CC(=O)C1CCC2C1C(C(C)C)CCC2(C)O (stereo not shown) [Compound 21, oplopanone A]	83.3
CC(C)[C@H]1CC[C@](C)(O)[C@H]2CC[C@@](O)(CO)C[C@]12O [Compound 12, calamentriol C]	70.9
CC(C)[C@@H]1CCC(=O)C2=C1[C@H](O)[C@](C)(O)CC2 [Compound 15, oxyphyllenodiols A]	79.3

Moving on to another molecule below.
Ask: What does the data say about its percent inhibition at 5 µM? Entry: C=C1CCC(C(C)C)C(O)C2C1CCC2(C)O (stereo not drawn) [Compound 3, 4β,6β-dihydroxy-1α,5β(H)-guai-10(14)-ene]
Result: 74.7

###

- target_of_assay: SARS-CoV-2 Mpro (Severe acute respiratory syndrome coronavirus 2)
- protocol_notes: SARS-CoV-2 Mpro inhibition assay (fluorescence, 96-well)
- Assay type: biochemical
- test_parameters: read-out: Inhibition at 5 μM (%)
readout_label: percent inhibition at 5 µM (%)
Give bare numbers, in %.

Known percent inhibition at 5 µM results, listed for orientation:
CC(C)C1CCC2(C)C(O)CCC(C)(O)C2C1O (stereo not shown) [Compound 17, ananosmin]	74.6
CC1(O)CCC2C(C3C1CCC3(C)O)C2(C)C (single isomer, unassigned; (-)) [Compound 5, (-)-alloaromadendrane-3β,9β-diol]	78.3
CC1CC(=O)C(O)(C(C)C)C12CCC(C)(O)C(=O)C2 (stereo not shown) [Compound 20, calamusin D]	79.7

# input for lookup
Ask: State the recorded percent inhibition at 5 µM for this entry: C=C1CC[C@@H]2[C@](C)(O)[C@H](O)C[C@H](C(C)C)[C@@]2(O)C1 [Compound 9, calamentriol A]
Result: 82.9

###

- target_of_assay: SARS-CoV-2 PLpro (Severe acute respiratory syndrome coronavirus 2, UniProt P0DTD1)
- protocol_notes: SARS-CoV-2 PLpro inhibition assay (fluorescence, 96-well)
- Type: biochemical
readout_label: IC50 (µM)
Numbers only, in µM.

Ask: Entry COc1cc(OC)c(OC)cc1C=O [Compound 24, 2,4,5-trimethoxybenzaldehyde] , system SARS-CoV-2 PLpro (Severe acute respiratory syndrome coronavirus 2, UniProt P0DTD1): what IC50 was measured?
Result: 3.92

###

- target_of_assay: SARS-CoV-2 Mpro (Severe acute respiratory syndrome coronavirus 2, UniProt P0DTD1)
- protocol_notes: SARS-CoV-2 Mpro inhibition assay (fluorescence, 96-well)
- Format: biochemical
- test_parameters: Mpro; inhibitor 5 μM, substrate 1 μM, triplicate, 25 °C; read-out: Inhibition at 5 μM (%)
percent inhibition at 5 µM below 80% gives not met; percent inhibition at 5 µM at or above it gives met.

Recorded results for 3 compounds are shown here.
CC(C)C(=O)[C@@]1([C@H](C)CC(=O)O)CC[C@@H](C)C(=O)C1 [Compound 19, acoric acid]	not met
CC(C)(O)C[C@H]1CC[C@@]2(C)[C@H](O)CC[C@](C)(O)[C@H]12 [Compound 22, bullatantriol]	met
CC(=O)CC[C@@]12CC(=O)O[C@]1(C(C)C)C(=O)C[C@@H]2C [Compound 18, neo-acorane A]	not met

Ask: Is the recorded value of percent inhibition at 5 µM equal to or greater than 80% for this compound? CC(C)C1CCC(C)(O)C2=C1C(=O)C(C)(O)CC2O (centres unmarked) [Compound 13, menecubebane B]
Result: not met

Ask: // query: CC(C)C1CCC(C)(O)C2CCC(C)(O)C2C1=O [Compound 1, 1R,5R,7S-guaiane-4R,10R-diol-6-one]
Result: met

###

- target_of_assay: SARS-CoV-2 PLpro (Severe acute respiratory syndrome coronavirus 2, UniProt P0DTD1)
- protocol_notes: SARS-CoV-2 PLpro inhibition assay (fluorescence, 96-well)
- Assay type: biochemical
- test_parameters: read-out: Inhibition at 5 μM (%)
readout_label: percent inhibition of PLpro at 5 µM
Reply with a number, then the unit it belongs to.

CC1CC(=O)C(O)(C(C)C)C12CCC(C)(O)C(=O)C2 (centres unmarked) [Compound 20, calamusin D]	22.2%
CC(C)C1CCC2(C)C(O)CCC(C)(O)C2C1O (centres unmarked) [Compound 17, ananosmin]	29.8%
CC(C)C1CCC(C)(O)C2CCC(C)(O)C2C1O (centres unmarked) [Compound 4, teuclatriol]	11.8%

Please state percent inhibition of PLpro at 5 µM for every compound in the list that follows.
1. CC(=O)C1CCC2C1C(C(C)C)CCC2(C)O (centres unmarked) [Compound 21, oplopanone A]
2. CC1=C[C@H]2[C@@H](C(C)C)CC[C@@](C)(O)[C@]2(O)[C@@H](O)C1 [Compound 14, calamentriol D]
3. CC1(O)CCC2C(C3C1CCC3(C)O)C2(C)C (single isomer, unassigned; (-)) [Compound 5, (-)-alloaromadendrane-3β,9β-diol]
4. COc1cc(OC)c(OC)cc1C=O [Compound 24, 2,4,5-trimethoxybenzaldehyde]
5. CC(C)C1=CC[C@@]2(C)[C@H](O)CC[C@](C)(O)[C@@H]2C1 [Compound 16, oplodiol]

Result:
33.9%
25.4%
14.4%
9.54%
33.6%

###

Field: IC50. Provide a value for each of the compounds that follow.
- target_of_assay: SARS-CoV-2 PLpro (Severe acute respiratory syndrome coronavirus 2)
- protocol_notes: SARS-CoV-2 PLpro inhibition assay (fluorescence, 96-well)
- Format: biochemical
- test_parameters: PLpro 1 µM, inhibitor 0–20 µM, substrate 20 µM; read-out: IC50
One number for each entry, in µM.

Known results for compounds:
COc1cc2ccnc3c2c(c1O)-c1c-3cccc(OC)c1=O	0.743
CC(=O)CC[C@@]12CC(=O)O[C@]1(C(C)C)C(=O)C[C@@H]2C	1.89
CC(C)(O)C[C@H]1CC[C@@]2(C)[C@H](O)CC[C@](C)(O)[C@H]12	1.26

Provide the reported IC50 of each entry below, same order.
1. CC(C)C(=O)[C@@]1([C@H](C)CC(=O)O)CC[C@@H](C)C(=O)C1
2. CC(C)C1CCC(C)(O)C2CCC(C)(O)C2C1=O [1R,5R,7S-guaiane-4R,10R-diol-6-one]
3. CC(C)C1CCC(C)(O)C2=C1C(=O)C(C)(O)CC2O (stereo not shown)
4. C=C1CC[C@@H]2[C@@](O)(C1)[C@H](C(C)C)CC[C@@]2(C)O

Result:
1.45
0.386
2.53
1.67

###

- target_of_assay: SARS-CoV-2 PLpro (Severe acute respiratory syndrome coronavirus 2, UniProt P0DTD1)
- protocol_notes: SARS-CoV-2 PLpro inhibition assay (fluorescence, 96-well)
- Format: biochemical
- test_parameters: read-out: Inhibition at 5 μM (%)
Give measured percent inhibition of PLpro at 5 µM for each item. Keep answers brief.
Give bare numbers, in %.

CC(C)[C@@H]1CC[C@](C)(O)[C@@H]2CC[C@](C)(O)C[C@]21O	38.4
CC1=CCC(C(C)C)C(O)C2C1CCC2(C)O (stereo not drawn) [Compound 2, 4β,6β-dihydroxy-1α,5β(H)-guai-9-ene]	14
C=C1CCC(C(C)C)C(O)C2C1CCC2(C)O (stereo not drawn) [Compound 3, 4β,6β-dihydroxy-1α,5β(H)-guai-10(14)-ene]	11.3

Please examine the following record next.
Ask: Tell me the measured percent inhibition of PLpro at 5 µM of CC(C)[C@H]1CC[C@](C)(O)[C@H]2CC[C@@](O)(CO)C[C@]12O , please.
Result: 25.8

###

- target_of_assay: SARS-CoV-2 Mpro (Severe acute respiratory syndrome coronavirus 2, UniProt P0DTD1)
- protocol_notes: SARS-CoV-2 Mpro inhibition assay (fluorescence, 96-well)
- Type: biochemical
- test_parameters: read-out: Inhibition at 5 μM (%)
Could you please report measured percent inhibition at 5 µM for the items listed next?
Numbers only, in %.

Known results for compounds:
COc1cc(OC)c(OC)cc1C=O	68.9
CC1=C[C@H]2[C@@H](C(C)C)CC[C@@](C)(O)[C@]2(O)[C@@H](O)C1	81.9
CC(C)C1=CC[C@@]2(C)[C@H](O)CC[C@](C)(O)[C@@H]2C1	78.2
CC1=CCC(C(C)C)C(O)C2C1CCC2(C)O (stereo not drawn) [Compound 2, 4β,6β-dihydroxy-1α,5β(H)-guai-9-ene]	85.9

For every record below, what is its percent inhibition at 5 µM?
1. CC(C)C1CCC(C)(O)C2CCC(C)(O)C2C1O (stereo not shown)
2. CC1=CC[C@H]2[C@](O)(C1)[C@@H](C(C)C)CC[C@@]2(C)O

Result:
87.2
85.6

Ask: Request the reported percent inhibition at 5 µM associated with CC(C)[C@@H]1CC[C@](C)(O)[C@@H]2CC[C@](C)(O)C[C@]21O
Result: 80.5
